# System: SNB-19 CNS
# Method Notes: NCI tumour cell line growth inhibition, 48 h
Attribute Measured: GI50

I am curious: what GI50 value has been reported for CCN1C(=O)N(CC)C2C1NN=c1s/c(=C\c3ccccn3)c(=O)n12 (stereo unspecified) ?
3.04 µM

What about this molecule? `COc1ccc(/C=C(\C(=O)NCc2cccnc2)S(=O)(=O)c2ccccc2)cc1OC`
3.69 µM

What do we get for `CCc1ccc2c(c1)C(=O)c1c-2n(CCCN=[N+]=[N-])c(=O)c2cc(OC)c(OC)cc12` ?
> 100 µM

Check `COc1cc([N+](=O)[O-])c(OC)cc1-c1nc2sccn2c1/C=N/N=C(N)N` too.
8.52 µM

Entry `Cn1cccc1-c1cc(-c2ccc(Br)cc2)[nH]c(=O)c1C#N` please
> 100 µM

And the next one, `COC(=N)c1c(N)[n+]([O-])c2ccc(F)cc2[n+]1[O-]` ?
> 100 µM

This collection of values is drawn from PubChem BioAssay (NCI).
